// data source = the supplement of paper PMC10899765

# Tested on: MCF10A
# Test Details: 5+ nucleoli phenotype percent effect (relative to siNT 0% and siKIF11 100%); higher = more cells with five or more nucleoli
# Reported Conditions: 20 nM; 72 h
Label 0.0 if 5+ nucleoli phenotype percent effect falls below -20%; label 1.0 in every other case.

Sequence Chain	Class
CAUACAAUCUGACAUGUAUUU [hsa-miR-4666a-3p]	1.0
AUCCUCUCUUCCCUCCUCCCAG [hsa-miR-7111-3p]	0.0
UACAGUACUGUGAUAACUGAA [hsa-miR-101-3p]	0.0
CCAUGAAGCAGUGGGUAGGAGGAC [hsa-miR-8060]	1.0
UAGUCCCUUCCUUGAAGCGGUC [hsa-miR-2114-5p]	0.0
AGUGAAUGAUGGGUUCUGACC [hsa-miR-1257]	0.0
CACCCCCUGUUUCCUGGCCCAC [hsa-miR-4640-3p]	1.0
CUCUCCCUCUUUACCCACUAG [hsa-miR-6867-3p]	1.0
CGUCCCGGGGCUGCGCGAGGCA [hsa-miR-4449]	1.0
GGGGGGAUGUGCAUGCUGGUU [hsa-miR-4525]	1.0
UAGGGAUGGGAGGCCAGGAUGA [hsa-miR-6757-5p]	1.0
ACAGGGCCGCAGAUGGAGACU [hsa-miR-3918]	0.0
